test system: DP receptor (Homo sapiens, UniProt Q13258)
Construct: endogenous in cells; host or cells: washed platelets from peripheral blood of a healthy volunteer
Sequence (Q13258 1-359): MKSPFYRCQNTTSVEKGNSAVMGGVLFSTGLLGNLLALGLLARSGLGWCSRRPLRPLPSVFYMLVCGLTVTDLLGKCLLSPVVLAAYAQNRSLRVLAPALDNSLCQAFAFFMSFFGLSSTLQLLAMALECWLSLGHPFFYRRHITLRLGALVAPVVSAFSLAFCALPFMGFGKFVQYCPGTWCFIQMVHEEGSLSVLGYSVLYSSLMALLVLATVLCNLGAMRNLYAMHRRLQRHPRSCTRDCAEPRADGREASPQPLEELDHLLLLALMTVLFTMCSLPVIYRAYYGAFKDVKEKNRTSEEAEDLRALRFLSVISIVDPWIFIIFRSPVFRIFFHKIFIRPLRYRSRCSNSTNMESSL
assay details: cAMP assay with washed platelet (DP inhibitory activity in vitro)
Type: cell-based
stated conditions: read-out: IC50 (50% DP-inhibitory concentration in the cAMP assay); washed human platelets, 100 nM PGD2, cAMP by HTRF
Documented log10 IC50 across a set of molecules
measurement label: log10 IC50 (log10 of the value in nM)

molecule	log10 IC50
CC(C)NC(=O)Nc1ccc(N2CCN(S(=O)(=O)c3ccc(OC(C)C)cc3)CC2)cc1OCC(=O)O	4.23
CC(C)Oc1ccc(S(=O)(=O)N2CCN(c3ccc(Cl)c(OCC(=O)O)c3)CC2C)cc1 (stereo not shown)	2.87
CC(C)Oc1ccc(S(=O)(=O)N2CCN(c3ccc(Cl)c(OCC(=O)O)c3)CC2)cc1F	2.91
CC(C)OC(=O)Nc1ccc(N2CCN(S(=O)(=O)c3ccc(OC(C)C)cc3)CC2)cc1OCC(=O)O	3.23
CC(C)Oc1ccc(S(=O)(=O)N2CCN(c3ccc(OCc4ccoc4)c(OCC(=O)O)c3)CC2)cc1	3.56
CC(C)Oc1ccc(S(=O)(=O)N2CCN(c3ccc(-c4ccccc4)c(OCC(=O)O)c3)CC2)cc1	3.36
CC(C)Oc1ccc(S(=O)(=O)N2CCN(c3ccc(-c4nnco4)c(OCC(=O)O)c3)CC2)cc1	2.90
CC(C)Oc1ccc(S(=O)(=O)N2CCN(c3ccc(C(=O)Nc4cc(C5CC5)n[nH]4)c(OCC(=O)O)c3)CC2)cc1	2.08
CC(C)Oc1ccc(S(=O)(=O)N2CCN(c3ccc(NC(=O)c4ccccn4)c(OCC(=O)O)c3)CC2)cc1	3.49
CC(C)Oc1ccc(S(=O)(=O)N2CCN(c3ccc(C(=O)Nc4ccn(C)n4)c(OCC(=O)O)c3)CC2)cc1	2.85
CC(C)Oc1ccc(S(=O)(=O)N2CCN(c3cc(Br)cc(OCC(=O)O)c3)CC2)cc1	2.36
CC(C)Oc1ccc(S(=O)(=O)N2CCN(c3cc(OCC(=O)O)cc(-c4cccs4)c3)CC2)cc1	2.81
Cc1ccc(N2CCN(S(=O)(=O)c3ccc(OC(C)C)cc3)CC2)cc1OCC(=O)O	3.66
CC(C)Oc1ccc(S(=O)(=O)N2CCN(c3cc(OCC(=O)O)ccc3Cl)CC2)cc1	3.15
CC(C)Oc1ccc(S(=O)(=O)N2CCN(c3ccc(Cl)c(OCC(=O)O)c3)CC2)cc1	2.61
CC(C)Oc1ccc(S(=O)(=O)N2CCN(c3ccc(C(=O)NCc4ccccn4)c(OCC(=O)O)c3)CC2)cc1	3.38
